biological target: 5-hydroxytryptamine receptor 4 (Homo sapiens, UniProt Q13639)
Sequence (Q13639 whole entry): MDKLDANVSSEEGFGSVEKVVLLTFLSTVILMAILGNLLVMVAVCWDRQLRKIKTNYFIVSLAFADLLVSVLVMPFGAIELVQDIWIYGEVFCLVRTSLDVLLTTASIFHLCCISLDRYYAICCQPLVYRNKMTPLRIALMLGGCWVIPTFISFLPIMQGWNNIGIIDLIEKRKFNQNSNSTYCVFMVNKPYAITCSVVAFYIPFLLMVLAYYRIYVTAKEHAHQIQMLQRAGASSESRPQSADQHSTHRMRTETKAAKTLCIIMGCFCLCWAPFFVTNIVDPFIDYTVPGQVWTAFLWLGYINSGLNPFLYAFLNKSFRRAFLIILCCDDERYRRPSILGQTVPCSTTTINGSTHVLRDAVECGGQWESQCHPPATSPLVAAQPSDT
pKi: −log10 of the molar value.
# if value of pKi reaches 8, tag condition met; if it stays below, tag condition not met

Prompt: Hi, just wondering whether COc1cc(N)c(Cl)cc1C(=O)OCCN1CCC(C(=O)NCCNC(=O)C2CCN(CCOC(=O)c3cc(Cl)c(N)cc3OC)CC2)CC1 shows pKi of 8 or higher.
Response: condition not met

Prompt: Hi, just wondering whether COc1cc(N)c(Cl)cc1C(=O)OCCN1CCC(C(=O)NCCCCCNC(=O)C2CCN(CCOC(=O)c3cc(Cl)c(N)cc3OC)CC2)CC1 shows pKi of 8 or higher.
Response: condition met

Prompt: Hi, just wondering whether COc1cc(N)c(Cl)cc1C(=O)OCCN1CCC(NC(=O)CCNC(=O)C2CCN(CCOC(=O)c3cc(Cl)c(N)cc3OC)CC2)CC1 shows pKi of 8 or higher.
Response: condition not met

Prompt: Hi, just wondering whether COc1cc(N)c(Cl)cc1C(=O)OCCN1CCC(CCNC(=O)CCC(=O)NCCC2CCN(CCOC(=O)c3cc(Cl)c(N)cc3OC)CC2)CC1 shows pKi of 8 or higher.
Response: condition met

Prompt: Hi, just wondering whether COc1cc(N)c(Cl)cc1C(=O)OCCN1CCN(C(=O)CCCCCCCCCCC(=O)N2CCN(CCOC(=O)c3cc(Cl)c(N)cc3OC)CC2)CC1 shows pKi of 8 or higher.
Response: condition not met
